B1: BTBD1 (parent)
chain: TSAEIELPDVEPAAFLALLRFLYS

Variants of: B1
methodSummary: protein stability index of a GFP-peptide fusion (GPS, HEK-293T) (PSI 1-6); higher = more stable;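 also: lentivirally expressed fusions sorted by FACS into six bins by GFP to DsRed ratio, PSI derived from sequencing read proportions per bin multiplied by bin number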
testContext: c terminus: a fixed tail appended
1 means recorded protein stability index is 2 or above; 0 means it is below 2.

Example entries begin here.
TSAEIELPDVEPHAFLALLRFLYS [A13H]
1
GSAEIELPDVEPAAFLALLRFLYS [T1G]
1
TSAEIELPDVMPAAFLALLRFLYS [E11M]
0
TSAEIELPDVEPKAFLALLRFLYS [A13K]
1
TSALIELPDVEPAAFLALLRFLYS [E4L]
0

INPUT: Check this variant for protein stability index at or above 2: TSAEIELPDVEPWAFLALLRFLYS [A13W]
OUTPUT: 1

INPUT: Quick check, protein stability index >= 2? TSAEIELPDVEPAAFLALQRFLYS [L19Q]
OUTPUT: 0

INPUT: Determine whether measured protein stability index meets or exceeds 2 for TSPEIELPDVEPAAFLALLRFLYS [A3P]
OUTPUT: 1

INPUT: Exam item: decide whether the reported protein stability index for TSAEIELPDQEPAAFLALLRFLYS [V10Q] is at least 2.
OUTPUT: 1

INPUT: Does protein stability index meet or surpass 2 for TSAEIELPDVEPAFFLALLRFLYS [A14F] ?
OUTPUT: 0

INPUT: Form field: protein stability index at least 2? Entry: TSAEIELLDVEPAAFLALLRFLYS [P8L]
OUTPUT: 0

INPUT: Test whether the variant TSAEIELPDVAPAAFLALLRFLYS [E11A] records protein stability index of 2 or higher.
OUTPUT: 0

INPUT: Tell me whether protein stability index is at least 2 here: TSAEIELPDVEHAAFLALLRFLYS [P12H]
OUTPUT: 1

INPUT: // inclusive: protein stability index at least 2? input: TSAEIELPDVEPIAFLALLRFLYS [A13I]
OUTPUT: 0

INPUT: Hello, I need to know if TSAEIHLPDVEPAAFLALLRFLYS [E6H] has measured protein stability index not below 2. Thanks!
OUTPUT: 0

INPUT: Please tell me: is the variant FSAEIELPDVEPAAFLALLRFLYS [T1F] at or over 2 in terms of protein stability index?
OUTPUT: 0

// data source = the supplement of paper PMC10567573
